System: LoVo cells
Test: MTS cell viability assay, LoVo cells
Assay type: cell-based, human
Conditions: Homo sapiens, LoVo; 24 h exposure; read-out: IC50 (24 h) LoVo
TEST_READOUT: pIC50
Value format note: pIC50 is -log10 of concentration (mol/L); just state the number.

COMPOUND	pIC50
Cc1ccc(-c2nnc(N)s2)cc1 [2b]	3.87
COc1ccc(OC)c(-c2nnc(N)s2)c1 [2d]	4.27
Nc1nnc(-c2ccc(O)c(O)c2)s1 [2c]	3.79
Nc1nnc(-c2ccccc2CS(=O)(=O)c2ccccc2)s1 [2g]	4.74
O=C(Nc1nnc(-c2ccccc2)s1)c1ccccc1 [3b]	3.76

input: Tell us which pIC50 value is on record for Nc1nnc(-c2ccccc2)s1 [2a, 5-Phenyl-1,3,4-thiadiazol-2-amine]
output: 3.69

input: Give the reported value of pIC50 for this record: COc1cc(-c2nnc(N)s2)cc(OC)c1OC [2e]
output: 3.97
